Reference for the values: patent US20210145976A1

Catalogue of binders with associated huCD71/Fc
Biological target: T1, recombinant biotinylated CD71 extracellular domain (Sino Biologics) with an N-terminal 6His tag (human, UniProt P02786 89-760, biotinylated (sites not given))
T1 construct: extracellular domain; also called hCD71; huCD71
T1 sequence (P02786 other isoform, or with tags, fused parts or gaps): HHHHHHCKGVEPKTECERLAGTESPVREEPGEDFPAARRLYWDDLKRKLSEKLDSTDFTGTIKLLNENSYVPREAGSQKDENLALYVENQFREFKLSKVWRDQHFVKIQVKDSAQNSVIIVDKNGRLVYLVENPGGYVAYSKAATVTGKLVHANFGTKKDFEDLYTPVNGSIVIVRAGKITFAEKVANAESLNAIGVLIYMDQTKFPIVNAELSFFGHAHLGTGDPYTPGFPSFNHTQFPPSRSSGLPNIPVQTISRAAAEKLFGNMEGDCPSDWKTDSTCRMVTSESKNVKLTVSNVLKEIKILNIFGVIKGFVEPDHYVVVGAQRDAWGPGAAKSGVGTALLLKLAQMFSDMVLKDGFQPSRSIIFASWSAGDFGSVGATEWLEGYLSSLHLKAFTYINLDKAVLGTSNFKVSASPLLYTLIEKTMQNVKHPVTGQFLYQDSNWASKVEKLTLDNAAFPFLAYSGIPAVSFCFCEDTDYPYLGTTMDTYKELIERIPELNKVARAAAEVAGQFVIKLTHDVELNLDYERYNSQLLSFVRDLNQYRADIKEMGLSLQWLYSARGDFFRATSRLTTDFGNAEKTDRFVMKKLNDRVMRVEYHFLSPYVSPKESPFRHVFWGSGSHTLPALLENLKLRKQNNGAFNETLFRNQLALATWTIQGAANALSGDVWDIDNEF
Assay: screening ELISA, ratio

| binder | reading |
| --- | --- |
| SEQ ID NO 53 (designed binder, FN3 domain) MLPAPKNLVVSRVTEDSARLSWTAPDAAFDSFFISYIEWWDLGEAIVLTVPGSERSYDLTGLKPGTEYHVEIFGVKGGTQSYPLSAIFTT | 110 |
| SEQ ID NO 38 (designed binder, FN3 domain) MLPAPKNLVVSRVTEDSARLSWTAPDAAFDSFHIAYEESHTTGEAIFLRVPGSERSYDLTGLKPGTEYSVSIEGVKGGHYSPPLTAKFTT | 202 |
| SEQ ID NO 43 (designed binder, FN3 domain) MLPAPKNLVVSRVTEDSARLSWTAPDAAFDSFYIEYYESYPGGEAIVLTVPGSERSYDLTGLKPGTEYDVYIYGVKGGYWSRPLSAIFTT | 199 |

// SEQ ID NO 37 (designed binder, FN3 domain) MLPAPKNLVVSRVTEDSARLSWTAPDAAFDSFHIIYTEEEKEGEAIYLRVPGSERSYDLTGLKPGTEYLVEIEGVKGGKRSVPLNASFTT : huCD71/Fc value = 467

// SEQ ID NO 33 (designed binder, FN3 domain) MLPAPKNLVVSRVTEDSARLSWTAPDAAFDSFTIQYEELTTVGEAIYLRVPGSERSYDLTGLKPGTEYVVWIEGVKGGLRSNPLGAAFTT : huCD71/Fc value = 46.6

// SEQ ID NO 35 (designed binder, FN3 domain) MLPAPKNLVVSRVTEDSARLSWTAPDAAFDSFEIAYFEAIWNGEAIYLTVPGSERSYDLTGLKPGTEYQVEIRGVKGGPTSRPLFAWFTT : huCD71/Fc value = 2130
